# Tested on: HepG2
# Experiment: Cytotoxicity against human HepG2 cells after 48 hrs by MTT assay
# Format: functional, cell-based
# Test Parameters: HepG2, 48 h
pIC50: −log10 of the molar value.

[
  {
    "Mol Smiles": "C[C@@H]1CC[C@@]2(OC1)O[C@H]1C[C@H]3[C@@H]4CC=C5C[C@@H](OC(=O)CN)CC[C@]5(C)[C@H]4CC[C@]3(C)[C@H]1[C@@H]2C",
    "pIC50": "< 4.30"
  },
  {
    "Mol Smiles": "C[C@@H]1CC[C@@]2(OC1)O[C@H]1C[C@H]3[C@@H]4CC=C5C[C@@H](OC(=O)CCCCCNC(=O)c6ccccc6O)CC[C@]5(C)[C@H]4CC[C@]3(C)[C@H]1[C@@H]2C",
    "pIC50": "< 4.30"
  },
  {
    "Mol Smiles": "C[C@@H]1CC[C@@]2(OC1)O[C@H]1C[C@H]3[C@@H]4CC=C5C[C@@H](O[C@@H]6O[C@H](CO)[C@@H](O[C@@H]7O[C@H](CO)[C@@H](O)[C@H](O)[C@H]7O)[C@H](O)[C@H]6O[C@@H]6O[C@@H](C)[C@H](O)[C@@H](O)[C@H]6O)CC[C@]5(C)[C@H]4CC[C@]3(C)[C@H]1[C@@H]2C",
    "pIC50": 5.12
  },
  {
    "Mol Smiles": "C[C@@H]1CC[C@@]2(OC1)O[C@H]1C[C@H]3[C@@H]4CC=C5C[C@@H](O)CC[C@]5(C)[C@H]4CC[C@]3(C)[C@H]1[C@@H]2C",
    "pIC50": "< 4.30"
  }
]
